# protocolDescription: Cytotoxicity against in human MT-4 after 5 days by MTT assay
# Format: cell-based, MT4
# cond: MT-4 cells, time 5 day
Would you mind telling me the reported CC50 at 120 h of each entry?

I would be grateful if you could provide CC50 at 120 h for each of the following entries.
1. c1cc(CN2CCCNCCNCCCNCC2)ccc1CN1CCCNCCNCCCNCC1
2. COC[C@@H](c1ccc(C(F)(F)F)cc1)N1CCN(C2(C)CCN(C(=O)c3c(C)ncnc3C)CC2)C[C@@H]1C
3. Cc1cn([C@H]2C[C@H](N=[N+]=[N-])[C@@H](CO)O2)c(=O)[nH]c1=O

Output line:
["> 50 µM", "> 5 µM", "74 µM"]
